Data origin: PubChem BioAssay AID1066

Tested on: HMG-CoA reductase (Enterococcus faecalis, mvaE)
methodSummary: class II HMG-CoA reductase enzyme inhibition – biochemical, Enterococcus faecalis, primary screen (AID 1066);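 note: enzyme runs in reverse so mevalonate oxidation gives rising NADPH absorbance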
conditionDetails: purified E. faecalis HMGR, NADPH absorbance 340 nm kinetic; at 10 µM
Hit rate of the full screen: of about 190,000 compounds, about 790 (0.42%) were called active.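 Rule for the calls: active = inhibition above a set limit, the median over all tested compounds plus 3 SD (cut at about 9.5% in these data); inconclusive = no clear call, values can overlap the other calls; inactive = the rest.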 The list comes from a sample in which actives are over-represented; it also holds close analogues and randomly drawn compounds.
Labels: active, inactive

{"molecule": "CCCCN1C(=O)/C(=C(/C#N)C(N)=O)c2ccccc21", "targetEntity": "HMG-CoA reductase (Enterococcus faecalis, mvaE)", "classAssignment": "inactive"}
{"molecule": "CCOC(=O)c1[nH]cnc1C(=O)Nc1ccccc1C", "targetEntity": "HMG-CoA reductase (Enterococcus faecalis, mvaE)", "classAssignment": "inactive"}
{"molecule": "COCc1c(N)c(C)nc(Cl)c1C#N", "targetEntity": "HMG-CoA reductase (Enterococcus faecalis, mvaE)", "classAssignment": "inactive"}
{"molecule": "O=C(CCC(=O)NNc1nc2ccccc2c2nc(-c3ccccc3)nn12)NCCCN1CCCC1=O", "targetEntity": "HMG-CoA reductase (Enterococcus faecalis, mvaE)", "classAssignment": "active"}
{"molecule": "C/C=C/C=C/C(=O)OCC(=O)Nc1ccc(Cl)cc1", "targetEntity": "HMG-CoA reductase (Enterococcus faecalis, mvaE)", "classAssignment": "inactive"}
{"molecule": "CCOc1ccc(NC(=O)CN2CCN(CC(=O)Nc3ccc(OC)cc3)CC2)cc1", "targetEntity": "HMG-CoA reductase (Enterococcus faecalis, mvaE)", "classAssignment": "active"}
{"molecule": "CC1(C)OC(=O)C(=CNC(CO)C(=O)O)C(=O)O1 (stereo unspecified)", "targetEntity": "HMG-CoA reductase (Enterococcus faecalis, mvaE)", "classAssignment": "inactive"}
{"molecule": "N/C(Cc1ccc([N+](=O)[O-])cc1)=N\\OC(=O)C1CCCCC1", "targetEntity": "HMG-CoA reductase (Enterococcus faecalis, mvaE)", "classAssignment": "inactive"}
{"molecule": "O=C(COC(=O)c1ccco1)NCc1ccc(Cl)cc1", "targetEntity": "HMG-CoA reductase (Enterococcus faecalis, mvaE)", "classAssignment": "inactive"}
{"molecule": "Cc1ccc(Cl)c(NC(=O)CN(C)CC(=O)Nc2ccc(F)c(F)c2F)c1Cl", "targetEntity": "HMG-CoA reductase (Enterococcus faecalis, mvaE)", "classAssignment": "inactive"}
{"molecule": "COc1ccc(N2C(=O)C(Cc3ccccc3)NC2=S)cc1 (stereo unspecified)", "targetEntity": "HMG-CoA reductase (Enterococcus faecalis, mvaE)", "classAssignment": "inactive"}
